# TEST SYSTEM: human glucagon receptor (human) (UniProt P47871)
# Sequence (P47871 26-477): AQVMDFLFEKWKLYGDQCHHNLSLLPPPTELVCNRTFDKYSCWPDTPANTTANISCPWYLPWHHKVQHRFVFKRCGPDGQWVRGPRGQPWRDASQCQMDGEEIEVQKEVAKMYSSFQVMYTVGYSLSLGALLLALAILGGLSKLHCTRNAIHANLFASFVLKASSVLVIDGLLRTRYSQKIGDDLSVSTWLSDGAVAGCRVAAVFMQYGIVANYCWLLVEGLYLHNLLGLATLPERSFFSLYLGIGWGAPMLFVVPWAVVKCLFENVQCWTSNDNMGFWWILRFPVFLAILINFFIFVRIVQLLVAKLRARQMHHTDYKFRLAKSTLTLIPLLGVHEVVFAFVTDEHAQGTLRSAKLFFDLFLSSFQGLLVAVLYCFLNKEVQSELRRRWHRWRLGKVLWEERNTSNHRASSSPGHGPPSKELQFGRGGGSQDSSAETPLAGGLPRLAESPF
# ASSAY PROCEDURE: cell-based or functional assay
Non-standard residues stand in square brackets, D forms with d. No end group written: not given here. αMeL = CC(C)C[C@](C)(N)C(=O)O; Aib = CC(C)(N)C(=O)O
PARAMETER MEASURED: log10 cAMP Rel EC50 (in the presence of 1% HSA) (log10 of the value in nM)
Recorded cAMP Rel EC50 (in the presence of 1% HSA) (log10, nM)

Query: Field request: log10 cAMP Rel EC50 (in the presence of 1% HSA) | item: YXQGTXTSDYSKXLDKKAQXQFIEYLEEGGPSSGEPPPSEG (non-natural residues; lipidated Lys; C-terminal amide; synthetic construct; SITE 2: note = 2-Aminoisobutyric Acid; SITE 6: note = alpha-methyl-2-fluoro-L-phenylalanine; SITE 13: note = alpha-methyl-leucine; SITE 17: note = Lysine is chemically modified through conjugation of the epsilon-amino group of the Lysine side chain with (2-[2-(2-Amino-ethoxy)-et)) [Example 292]
Reply: 2.77

Query: Would you kindly repeat that for HXQGTXTSDYSILLDKKAAXAFIEYLIETGPSSGEPPPSEG (Aib, αMeF(2F), AEEA-γGlu-C20 diacid on Lys, amide; synthetic construct; SITE 2: note = 2-Aminoisobutyric Acid; SITE 6: note = alpha-methyl-2-fluoro-L-phenylalanine; SITE 17: note = Lysine is chemically modified through conjugation of the epsilon-amino group of the Lysine side chain with (2-[2-(2-Amino-ethoxy)-ethoxy]-acetyl)-(gamma-Glu)-CO-(CH2) 18-) [Example 290] ?
Reply: 2.94

Query: Would you kindly repeat that for Y[Aib]QGTFTSDFSK[αMeL]LDKKAQQAFIEYLLA[Aib]GPSSGAPPPSEG-NH2 (not fully specified (residue 17)) [Example 30] ?
Reply: 2.99

Query: Would you kindly repeat that for YXQGTXTSDXXIXLDXKAQXEFIEXLIEGGPSSGEPPPSGE (non-natural residues; Lys acylated C18 diacid; C-terminal amide; synthetic construct; SITE 2: note = 2-Aminoisobutyric Acid; SITE 6: note = alpha-methyl-2-fluoro-L-phenylalanine; SITE 10: note = 3-(4-Pyridyl)-L-alanine; SITE 11: note = alpha-methyl-L-serine; SITE 13: note = alpha-methyl-leucine; SITE 16: note = L-ornithine; SITE 17: note = Lysine is chemically mo) [Example 1177] ?
Reply: 2.19

Query: Would you kindly repeat that for YXQGTXTSDXXIXLDXKAQXEFIEXLVEGGPSSGEPPPTGE (not fully specified; Aib, αMeF(2F), 4Pal, αMeS, αMeL, Orn, Me4Pal, αMeY, acyl, amide; synthetic construct; SITE 2: note = 2-Aminoisobutyric Acid; SITE 6: note = alpha-methyl-2-fluoro-L-phenylalanine; SITE 10: note = 3-(4-Pyridyl)-L-alanine; SITE 11: note = alpha-methyl-L-serine; SITE 13: note = alpha-methyl-leucine; SITE 16: note = L-ornithine; SITE 17: note = Lysine is chemically mo) [Example 1153] ?
Reply: 2.33

Query: Would you kindly repeat that for YXQGTXTSDXXIXLDXKAQXEFIEXLIEGGPSSGAPPPSGE (Aib, αMeF, 4Pal, αMeS, αMeL, Orn, Me4Pal, αMeY; lipidated Lys; amide; synthetic construct; SITE 2: note = 2-Aminoisobutyric Acid; SITE 6: note = alpha-methyl-L-phenylalanine; SITE 10: note = 3-(4-Pyridyl)-L-alanine; SITE 11: note = alpha-methyl-L-serine; SITE 13: note = alpha-methyl-leucine; SITE 16: note = L-ornithine; SITE 17: note = Lysine is chemically modified th) [Example 1170] ?
Reply: 2.40
